Listing of IC50 toward Protein arginine N-methyltransferase 5 (Homo sapiens), each taken from a published source.

Before answering, review these 3 worked examples.
CC(=O)N1CCC(Nc2cc(C(=O)N3CC[C@H](N4CCc5ccccc5C4)[C@@H](O)C3)nc(-c3ccncc3)n2)CC1 = < 100 nM
CC(=O)N1CCC(Nc2cc(C(=O)N3CC[C@@H](N4CCc5ccccc5C4)[C@H](O)C3)nc(C(=O)N(C)C)n2)CC1 = 107 nM
Cn1cc(C(=O)N2CCC(Nc3cc(C(=O)N4CC[C@@H](N5CCc6ccccc6C5)[C@H](O)C4)nc(OC4CCCC4)n3)CC2)cn1 = 6.4 nM

q: // fetch Protein arginine N-methyltransferase 5 (Homo sapiens) IC50 for CC(C)(C)OC(=O)N1CCC(Nc2cc(C(=O)N3CC[C@H](N4CCc5ccccc5C4)[C@@H](O)C3)ncn2)CC1 (relative stereo)
a: < 100 nM

q: // fetch Protein arginine N-methyltransferase 5 (Homo sapiens) IC50 for O=C(c1cc(NC2CCN(C(=O)C3CC3)CC2)ncn1)N1CC[C@H](N2CCc3ccccc3C2)[C@@H](O)C1 (relative stereo)
a: < 100 nM

q: // fetch Protein arginine N-methyltransferase 5 (Homo sapiens) IC50 for CC(=O)N1CC2(CC(Nc3ccc4c(c3)C(=O)N(C[C@H](O)CN3CCc5ccccc5C3)CC43CC3)C2)C1
a: 2660 nM

q: // fetch Protein arginine N-methyltransferase 5 (Homo sapiens) IC50 for CCOc1ccccc1Nc1cc(N2CC[C@@H](N3CCc4ccccc4C3)[C@H](O)C2)ncn1 (relative stereo)
a: < 100 nM

q: // fetch Protein arginine N-methyltransferase 5 (Homo sapiens) IC50 for CC(=O)N1CCC(Nc2cccc(C(=O)N3CC[C@H](N4CCc5ccccc5C4)[C@@H](O)C3)c2)CC1 (relative stereo)
a: < 100 nM

q: // fetch Protein arginine N-methyltransferase 5 (Homo sapiens) IC50 for Cc1ccccc1Nc1cc(N2CC[C@H](N3CCc4ccccc4C3)[C@@H](O)C2)ncn1 (relative stereo)
a: < 100 nM

q: // fetch Protein arginine N-methyltransferase 5 (Homo sapiens) IC50 for CC(=O)N1CCC(CNc2cc(C(=O)N3CC[C@H](N4CCc5ccccc5C4)[C@@H](O)C3)ncn2)CC1
a: < 100 nM

q: // fetch Protein arginine N-methyltransferase 5 (Homo sapiens) IC50 for COCCN1CCC(Nc2cc(C(=O)N3CC[C@H](N4CCc5ccccc5C4)[C@@H](O)C3)ncn2)CC1
a: < 100 nM

q: // fetch Protein arginine N-methyltransferase 5 (Homo sapiens) IC50 for CC(C)(C)c1ccccc1Nc1cc(N2CC[C@H](N3CCc4ccccc4C3)[C@@H](O)C2)ncn1 (relative stereo)
a: < 100 nM

q: // fetch Protein arginine N-methyltransferase 5 (Homo sapiens) IC50 for O[C@H]1CN(c2cc(Nc3ccccc3Cl)ncn2)CC[C@@H]1N1CCc2ccccc2C1 (relative stereo)
a: < 100 nM

q: // fetch Protein arginine N-methyltransferase 5 (Homo sapiens) IC50 for COc1ccc(Nc2cc(N3CC[C@H](N4CCc5ccccc5C4)[C@@H](O)C3)ncn2)cc1 (relative stereo)
a: < 100 nM

q: // fetch Protein arginine N-methyltransferase 5 (Homo sapiens) IC50 for CC(=O)N1CCC(CCNc2cc(C(=O)N3CC[C@H](N4CCc5ccccc5C4)[C@@H](O)C3)ncn2)CC1 (relative stereo)
a: < 100 nM

q: // fetch Protein arginine N-methyltransferase 5 (Homo sapiens) IC50 for O[C@H]1CN(c2cc(Nc3ccccc3)ncn2)CC[C@@H]1N1CCc2ccccc2C1 (relative stereo)
a: < 100 nM

q: // fetch Protein arginine N-methyltransferase 5 (Homo sapiens) IC50 for CC(=O)N1CCC(Nc2cc(C(=O)N3CC[C@H](N4CCc5ccccc5C4)[C@@H](O)C3)nc(-n3ccnc3)n2)CC1
a: 110 nM

q: // fetch Protein arginine N-methyltransferase 5 (Homo sapiens) IC50 for CC(=O)N1CCC(Nc2cc(C(=O)N3CC[C@H](N4CCc5ccccc5C4)[C@@H](O)C3)nc(-c3ccccc3)n2)CC1
a: < 100 nM

q: // fetch Protein arginine N-methyltransferase 5 (Homo sapiens) IC50 for N#CC1CCC(Nc2cc(C(=O)N3CC[C@H](N4CCc5ccccc5C4)[C@@H](O)C3)ncn2)CC1 (some centres unmarked)
a: < 100 nM

q: // fetch Protein arginine N-methyltransferase 5 (Homo sapiens) IC50 for O=C(c1cc(NC2CCN(CC(F)(F)F)CC2)ncn1)N1CC[C@H](O)[C@@H](N2CCc3ccccc3C2)CC1
a: < 100 nM

q: // fetch Protein arginine N-methyltransferase 5 (Homo sapiens) IC50 for CNCCN(C)Cc1ccccc1C1CCN(c2ccccc2)CC1
a: ≥ 10000 nM

q: // fetch Protein arginine N-methyltransferase 5 (Homo sapiens) IC50 for CC(=O)N1CCC(Nc2cc(C(=O)N3CC[C@H](N4CCc5ccccc5C4)[C@@H](O)C3)ncn2)CC1 (relative stereo)
a: < 100 nM

q: // fetch Protein arginine N-methyltransferase 5 (Homo sapiens) IC50 for O[C@H]1CN(c2cc(Nc3ccc(F)c(F)c3)ncn2)CC[C@@H]1N1CCc2ccccc2C1 (relative stereo)
a: < 100 nM
